All values here come from patent US20250250357A1.

Target: T1, human MSLN-R1-his protein (human, UniProt Q13421 296-390)
T1 construct: Made in HEK293E cells, purified on nickel column; also called hMSLN-R1-his; human MSLN-R1 protein; not shown: His tag
T1 chain: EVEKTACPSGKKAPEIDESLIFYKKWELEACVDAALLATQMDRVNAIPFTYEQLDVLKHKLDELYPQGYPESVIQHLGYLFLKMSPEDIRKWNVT
Experiment: ELISA, coated antigen, antibody 20 nM
Please respond with reported OD450 for every item in the list.
Numbers only.

{"binder": "S009-F7.21.16 chimeric antibody (antibody, human IgG1, kappa, V domains shown, Human-murine chimeric antibody, human IgG1/kappa constant regions) VH: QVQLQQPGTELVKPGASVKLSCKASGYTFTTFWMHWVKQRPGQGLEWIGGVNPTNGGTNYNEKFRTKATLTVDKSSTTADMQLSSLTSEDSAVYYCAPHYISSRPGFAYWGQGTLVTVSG VL: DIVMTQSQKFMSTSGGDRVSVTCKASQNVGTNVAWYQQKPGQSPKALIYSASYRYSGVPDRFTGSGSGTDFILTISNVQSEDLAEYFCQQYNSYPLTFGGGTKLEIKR", "test result": 0.06}
{"binder": "S009-F7.33.24 chimeric antibody (antibody, human IgG1, kappa, V domains shown, Human-murine chimeric antibody, human IgG1/kappa constant regions) VH: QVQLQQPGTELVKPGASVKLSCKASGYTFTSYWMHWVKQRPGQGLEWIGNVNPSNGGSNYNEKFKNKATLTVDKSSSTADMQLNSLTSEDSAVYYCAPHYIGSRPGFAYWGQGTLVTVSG VL: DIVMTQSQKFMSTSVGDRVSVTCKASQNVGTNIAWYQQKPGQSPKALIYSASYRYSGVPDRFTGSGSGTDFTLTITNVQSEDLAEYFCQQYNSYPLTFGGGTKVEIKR", "test result": 0.08}
{"binder": "S009-F7.11.11 chimeric antibody (antibody, human IgG1, kappa, V domains shown, Human-murine chimeric antibody, human IgG1/kappa constant regions) VH: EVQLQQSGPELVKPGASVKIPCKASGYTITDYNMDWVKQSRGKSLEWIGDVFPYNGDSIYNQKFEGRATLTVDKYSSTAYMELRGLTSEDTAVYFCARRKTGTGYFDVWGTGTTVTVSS VL: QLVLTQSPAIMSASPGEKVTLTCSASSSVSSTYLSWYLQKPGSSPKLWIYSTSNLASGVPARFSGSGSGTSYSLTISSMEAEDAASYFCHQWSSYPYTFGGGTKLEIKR", "test result": 0.06}
{"binder": "S009-F7.66.12 chimeric antibody (antibody, human IgG1, kappa, V domains shown, Human-murine chimeric antibody, human IgG1/kappa constant regions) VH: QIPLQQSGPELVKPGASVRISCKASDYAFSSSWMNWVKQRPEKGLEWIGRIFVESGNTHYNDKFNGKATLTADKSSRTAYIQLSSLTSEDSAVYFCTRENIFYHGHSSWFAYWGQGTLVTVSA VL: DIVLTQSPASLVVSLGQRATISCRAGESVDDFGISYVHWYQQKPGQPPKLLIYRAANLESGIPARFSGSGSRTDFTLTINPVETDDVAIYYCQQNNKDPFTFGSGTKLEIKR", "test result": 0.06}

Proceed to the following item.
// lookup OD450 for S009-F7.12.13 chimeric antibody (antibody, human IgG1, kappa, V domains shown, Human-murine chimeric antibody, human IgG1/kappa constant regions) VH: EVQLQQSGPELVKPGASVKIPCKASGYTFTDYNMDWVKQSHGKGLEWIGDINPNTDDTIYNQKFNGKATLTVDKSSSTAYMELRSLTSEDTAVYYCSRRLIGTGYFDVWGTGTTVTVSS VL: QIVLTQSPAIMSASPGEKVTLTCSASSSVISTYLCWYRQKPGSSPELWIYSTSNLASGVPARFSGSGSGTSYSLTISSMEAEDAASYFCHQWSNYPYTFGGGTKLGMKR 0.06
